Data origin, for the record: PubChem BioAssay

assay: small-molecule microarray binders of probe aCHRDL2, primary screen, biochemical, biotinylated probe, 635/667 nm fluorescence (AID 1100); settings: higher = more signal
assay_readout: composite z-score

molecule	measured
COCCOC(=O)N1C(=O)[C@@]2(c3cc(C#CCNC(N)=O)ccc31)[C@H](C(N)=O)[C@H]1C(=O)O[C@H](c3ccccc3)[C@H](c3ccccc3)N1[C@@H]2c1ccc(O)cc1	0.614
CN(C)CCCC[C@@H]1NC(=O)[C@H]2C[C@@H](C(=O)NCCCCCCNC(=O)CS)[C@@H](c3cccc(OCCO)c3)N2C1=O	0.366
O=C1c2ccccc2[C@](Cc2ccccc2I)(C(=O)NCCN2CCOCC2)[C@H](c2ccc(CO)cc2)N1Cc1ccccc1C(F)(F)F	0.358
COc1ccc(C(O)C2C=CC3C(=O)N(c4ccccc4)C(=O)C3N2Nc2ccccc2F)c2ccccc12 (stereo not drawn)	1.4
C=CCN1C(=O)[C@@]2(O[C@@H](CCO)[C@H]([Si](C)(C)c3ccc(OC)cc3)[C@H]2C)c2cc(N3CCCCC3=O)ccc21	0.0918
C[C@]12C(=O)N(CCO)[C@@H]3C(=O)N(c4ccc(Cl)cc4)CC=CC31O[C@@H]1/C=C\CCCOC(=O)C12 (stereo partly drawn)	0.776
COC(=O)C(CC#Cc1ccc2c(c1)[C@]1(C(=O)N2)[C@H](C(=O)N2CCN(c3ncccn3)CC2)[C@H]2C(=O)O[C@H](c3ccccc3)[C@H](c3ccccc3)N2[C@@H]1c1ccc(O)cc1)C(=O)OC	1.34
COc1ccc(C(=O)Nc2ccc(CN3C(=O)[C@@]4(O[C@@H](CC(=O)N(CCO)Cc5ccccc5)[C@H]([Si](C)(C)c5ccc(OC)cc5)[C@H]4C)c4ccccc43)cc2)cc1	-0.351
C[C@]1(C(=O)O)c2ccccc2C(=O)N(Cc2cc(C(F)(F)F)cc(C(F)(F)F)c2)[C@H]1c1ccc(CO)cc1	0.55
COc1cccc(C)c1NC(=O)O[C@H]1[C@H](OC(=O)Nc2ccccc2-c2ccccc2)[C@@H](OC(=O)Nc2ccccc2-c2ccccc2)[C@@H](OC)O[C@@H]1CO	0.573
COC(=O)[C@@]1(Cc2ccccc2)[C@H]2c3cc(C(=O)N(C)C)n(Cc4nc5ccccc5[nH]4)c3C[C@H]2CN1C(=O)c1ccccc1	1.21
CC1C2C(CCCO)=CC(C3C(=O)N(C(N)=O)C(=O)C23)N1Cc1cccc(OC(F)(F)F)c1 (stereo not drawn)	-0.311
CS(=O)(=O)CCOC(=O)C1=CC(CCCO)=CC(C2CC2)N(Cc2sc3ccccc3c2Cl)C=C1C(=O)OCCS(C)(=O)=O (stereo not drawn)	0.669
